Target: T1, cynomolgus IL12Rβ1 (cynomolgus, UniProt A0A2K5VWV1 24-662)
T1 construct: whole, on cells; also called cyno IL12Rβ1; Cyno IL-12Rβ1
Assay: FACS on Baf3 cells transfected with cyno IL12Rβ1, IgG4
pEC50: −log10 of the molar value.
pEC50 for assorted binders
reported endpoint: pEC50

binder | readout number
MOR05281 IgG4 (antibody, V domains shown, IgG4) VH: QVQLKESGPALVKPTQTLTLTCTFSGFSLSTRGVGVSWIRQPPGKALEWLALIYWDEDKYYSTSLKTRLTISKDTSKNQVVLTMTNMDPVDTATYYCARYQSGYYYNNDGWGVDIWGQGTLVTVSS VL: DIQMTQSPSSLSASVGDRVTITCRASQSISSWLNWYQQKPGKAPKLLIYAASSLQSGVPSRFSGSGSGTDFTLTISSLQPEDFATYYCQQYYAFPHTFGQGTKVEIKR | 9.00
MOR05278 IgG4 (antibody, V domains shown, IgG4) VH: QVQLVESGGGLVQPGGSLRLSCAASGFTFSSYGMSWVRQAPGKGLEWVSYIEPKLFWYATFYAASVKGRFTISRDNSKNTLYLQMNSLRAEDTAVYYCARNDFMEPAYFALWGQGTLVTVSS VL: DIELTQPPSVSVAPGQTARISCSGDNLGSYYAYWYQQKPGQAPVGVIYDDSERPSGIPERFSGSNSGNTATLTISGTQAEDEADYYCSSYTYSKNNVFGGGTKLTVLG | 9.03
MOR05286 IgG4 (antibody, V domains shown, IgG4; also called MOR5286) VH: QVQLKESGPALVKPTQTLTLTCTFSGFSLSTSGMGVSWIRQPPGKALEWLALIDWTDDKYYSTSLKTRLTISKDTSKNQVVLTMTNMDPVDTATYYCARTVGKGLYRVDNWGQGTLVTVSS VL: DIELTQPPSVSVAPGQTARISCSGDNLGSKFAYWYQQKPGQAPVLVIYDDSKRPSGIPERFSGSNSGNTATLTISGTQAEDEADYYCQSWDSSSGNDVFGGGTKLTVLG | 8.32

Ref: patent US20120034231A1
